// reported viability, T/C for each item listed
# Tested on: 252836-082-R-J2-PDC tumor spheroids, viability
# ASSAY_INFO: Anticancer human tumor 252836-082-R-J2-PDC patient-derived head and neck squamous cell carcinoma cell line growth inhibition [PI3K]
# ASSAY_CONDITIONS: second compound 10 µM; first compound 0.316 µM; hits give low values; spheroids with HUVEC and MSC
Give the quantity in %, number only.

compound="CCN1CCN(Cc2ccc(Nc3ncc(F)c(-c4cc(F)c5nc(C)n(C(C)C)c5c4)n3)nc2)CC1 + CC(Nc1ncnc2nc[nH]c12)c1cc2cccc(Cl)c2c(=O)n1-c1ccccc1" obs_value=69.8

Q: Requested read-out: viability, T/C. Entry: C#Cc1c(F)ccc2cc(O)cc(-c3ncc4c(N5CC6CCC(C5)N6)nc(OCC56CCCN5CC(F)C6)nc4c3F)c12 (stereo not given) + CC(Nc1ncnc2nc[nH]c12)c1cc2cccc(Cl)c2c(=O)n1-c1ccccc1
Ans: 53.9

Q: Requested read-out: viability, T/C. Entry: CC(Cn1ccc(-c2ccc(C#N)c(Cl)c2)n1)NC(=O)c1cc(C(C)O)[nH]n1 (stereo not given) + CC(Nc1ncnc2nc[nH]c12)c1cc2cccc(Cl)c2c(=O)n1-c1ccccc1
Ans: 73.4

Q: Requested read-out: viability, T/C. Entry: CCCS(=O)(=O)Nc1ccc(F)c(C(=O)c2c[nH]c3ncc(-c4ccc(Cl)cc4)cc23)c1F + CC(Nc1ncnc2nc[nH]c12)c1cc2cccc(Cl)c2c(=O)n1-c1ccccc1
Ans: 68.4

Q: Requested read-out: viability, T/C. Entry: C[C@@H](NC(=O)c1ncnc(N)c1Cl)c1ncc(C(=O)Nc2cc(C(F)(F)F)c(Cl)cn2)s1 + Cc1nc(NC(=O)N2CCCC2C(N)=O)sc1-c1ccnc(C(C)(C)C(F)(F)F)c1
Ans: 35.2

Q: Requested read-out: viability, T/C. Entry: CC1(C)CCC(CN2CCN(c3ccc(C(=O)NS(=O)(=O)c4ccc(NCC5CCOCC5)c([N+](=O)[O-])c4)c(Oc4cnc5[nH]ccc5c4)c3)CC2)=C(c2ccc(Cl)cc2)C1 + Cc1nc(NC(=O)N2CCCC2C(N)=O)sc1-c1ccnc(C(C)(C)C(F)(F)F)c1
Ans: 38.9

Q: Requested read-out: viability, T/C. Entry: C=CC(=O)N1CCN(c2nc(=O)n(-c3c(C)ccnc3C(C)C)c3nc(-c4c(O)cccc4F)c(F)cc23)C(C)C1 (stereo not given) + Cc1nc(NC(=O)N2CCCC2C(N)=O)sc1-c1ccnc(C(C)(C)C(F)(F)F)c1
Ans: 36.3

Q: Requested read-out: viability, T/C. Entry: CC(C)NCC(C(=O)N1CCN(c2ncnc3c2C(C)CC3O)CC1)c1ccc(Cl)cc1 (stereo not given) + CC(Nc1ncnc2nc[nH]c12)c1cc2cccc(Cl)c2c(=O)n1-c1ccccc1
Ans: 59.6

Q: Requested read-out: viability, T/C. Entry: CC1(C)CCC(Nc2ncc(C(F)(F)F)c(-c3c[nH]c4c(P(C)(C)=O)c(C#N)ccc34)n2)CN1 (stereo not given) + Cc1nc(NC(=O)N2CCCC2C(N)=O)sc1-c1ccnc(C(C)(C)C(F)(F)F)c1
Ans: 19.4

Q: Requested read-out: viability, T/C. Entry: CC1(C)CCC(CN2CCN(c3ccc(C(=O)NS(=O)(=O)c4ccc(NCC5CCOCC5)c([N+](=O)[O-])c4)c(Oc4cnc5[nH]ccc5c4)c3)CC2)=C(c2ccc(Cl)cc2)C1 + CC(Nc1ncnc2nc[nH]c12)c1cc2cccc(Cl)c2c(=O)n1-c1ccccc1
Ans: 68.6

====

// reported viability, T/C for each item listed
# Test system: 252836-082-R-J2-PDC tumor spheroids, viability
# ASSAY_INFO: Anticancer human tumor 252836-082-R-J2-PDC cell line growth inhibition [PI3K];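 also: spheroids exposed to agents for seven days before readout; percent of vehicle DMSO control viability so 100% = untreated growth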
# ASSAY_CONDITIONS: second compound 0.1 µM; first compound 0.001 µM; hits give low values; spheroids with HUVEC and MSC

Answered cases to consult:
molecule="Cn1ncnc1[C@H]1c2n[nH]c(=O)c3cc(F)cc(c23)N[C@@H]1c1ccc(F)cc1 + CC(Nc1ncnc2nc[nH]c12)c1cc2cccc(Cl)c2c(=O)n1-c1ccccc1" obs_value=82.6%
molecule="CC(=O)c1c(C)c2cnc(Nc3ccc(N4CCNCC4)cn3)nc2n(C2CCCC2)c1=O + CC(Nc1ncnc2nc[nH]c12)c1cc2cccc(Cl)c2c(=O)n1-c1ccccc1" obs_value=89.6%

The record that follows has no viability, T/C shown yet.
Q: Requested read-out: viability, T/C. Entry: CC(C)n1nc(-c2ccc3oc(N)nc3c2)c2c(N)ncnc21 + CC(Nc1ncnc2nc[nH]c12)c1cc2cccc(Cl)c2c(=O)n1-c1ccccc1
Ans: 97.9%

====

# Test system: 252836-082-R-J2-PDC tumor spheroids, viability
# ASSAY_INFO: Anticancer human tumor 252836-082-R-J2-PDC cell line growth inhibition [PI3K];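 also: spheroids exposed to agents for seven days before readout; percent of vehicle DMSO control viability so 100% = untreated growth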
# ASSAY_CONDITIONS: second compound 0.0316 µM; first compound 0.1 µM; hits give low values; spheroids with HUVEC and MSC
# strict inequality: viability, T/C < 70% yields Fulfilled, everything else yields Not fulfilled

Q: Quick check: viability, T/C of Cn1nccc1Nc1nccc(-c2ccn(C(CO)c3ccc(Cl)c(F)c3)c(=O)c2)n1 (stereo not drawn) + Cc1nc(NC(=O)N2CCCC2C(N)=O)sc1-c1ccnc(C(C)(C)C(F)(F)F)c1 under 70%?
Ans: Not fulfilled

Q: Quick check: viability, T/C of CC1(C)CCC(CN2CCN(c3ccc(C(=O)NS(=O)(=O)c4ccc(NCC5CCOCC5)c([N+](=O)[O-])c4)c(Oc4cnc5[nH]ccc5c4)c3)CC2)=C(c2ccc(Cl)cc2)C1 + Cc1nc(NC(=O)N2CCCC2C(N)=O)sc1-c1ccnc(C(C)(C)C(F)(F)F)c1 under 70%?
Ans: Not fulfilled

Q: Quick check: viability, T/C of CC1(C)CCC(Nc2ncc(C(F)(F)F)c(-c3c[nH]c4c(P(C)(C)=O)c(C#N)ccc34)n2)CN1 (stereo not drawn) + CC(Nc1ccc2c(c1)OCCn1cc(N3C(=O)OCC3C(F)F)nc1-2)C(N)=O under 70%?
Ans: Fulfilled

====

// reported viability, T/C for each item listed
# Test system: 252836-082-R-J2-PDC tumor spheroids, viability
# ASSAY_INFO: Anticancer human tumor 252836-082-R-J2-PDC cell line growth inhibition [PI3K];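 also: spheroids exposed to agents for seven days before readout; percent of vehicle DMSO control viability so 100% = untreated growth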
# ASSAY_CONDITIONS: second compound 1 µM; first compound 3.16 µM; hits give low values; spheroids with HUVEC and MSC
Give the quantity in %, number only.

compound="Cn1nccc1Nc1nccc(-c2ccn(C(CO)c3ccc(Cl)c(F)c3)c(=O)c2)n1 (centres undefined) + Cc1nc(NC(=O)N2CCCC2C(N)=O)sc1-c1ccnc(C(C)(C)C(F)(F)F)c1" value_type="viability, T/C" obs_value=58
compound="CNC(=O)c1ccc(N2C(=S)N(c3ccc(C#N)c(C(F)(F)F)c3)C(=O)C2(C)C)cc1F + CC(Nc1ncnc2nc[nH]c12)c1cc2cccc(Cl)c2c(=O)n1-c1ccccc1" value_type="viability, T/C" obs_value=94
compound="CCCS(=O)(=O)Nc1ccc(F)c(C(=O)c2c[nH]c3ncc(-c4ccc(Cl)cc4)cc23)c1F + COc1c(OCCCN2CCOCC2)ccc2c3n(c(=NC(=O)c4cnc(N)nc4)nc12)CCN3" value_type="viability, T/C" obs_value=5.99

Q: Requested read-out: viability, T/C. Entry: CNC(=O)c1ccc(N2C(=S)N(c3ccc(C#N)c(C(F)(F)F)c3)C(=O)C2(C)C)cc1F + COc1c(OCCCN2CCOCC2)ccc2c3n(c(=NC(=O)c4cnc(N)nc4)nc12)CCN3
Ans: 4.62

====

# Tested on: 252836-082-R-J2-PDC tumor spheroids, viability
# ASSAY_INFO: Anticancer human tumor 252836-082-R-J2-PDC cell line growth inhibition [PI3K];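 also: spheroids exposed to agents for seven days before readout; percent of vehicle DMSO control viability so 100% = untreated growth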
# ASSAY_CONDITIONS: second compound 10 µM; first compound 1 µM; hits give low values; spheroids with HUVEC and MSC
# Description: Combinatorial screen of targeted agents with the PI3K inhibitors inavolisib, alpelisib, duvelisib, and copanlisib in multi-cell type tumor spheroids A high-throughput screen of multi-cell type tumor spheroids was designed to identify active combinations of targeted small molecules and PI3K pathway inhibitors. […] Compounds. […] If the clinical Cmax for an agent had not been determined, the highest concentration tested was 10 microM. […]
// reported viability, T/C for each item listed
Give the quantity in %, number only.

Answered cases to consult:
compound="C=CC(=O)N1CCN(c2nc(=O)n(-c3c(C)ccnc3C(C)C)c3nc(-c4c(O)cccc4F)c(F)cc23)C(C)C1 (stereo not given) + CC(Nc1ncnc2nc[nH]c12)c1cc2cccc(Cl)c2c(=O)n1-c1ccccc1" obs_value=72.8
compound="C#Cc1c(F)ccc2cc(O)cc(-c3ncc4c(N5CC6CCC(C5)N6)nc(OCC56CCCN5CC(F)C6)nc4c3F)c12 (stereo not given) + Cc1nc(NC(=O)N2CCCC2C(N)=O)sc1-c1ccnc(C(C)(C)C(F)(F)F)c1" obs_value=25
compound="CC(Cn1ccc(-c2ccc(C#N)c(Cl)c2)n1)NC(=O)c1cc(C(C)O)[nH]n1 (stereo not given) + Cc1nc(NC(=O)N2CCCC2C(N)=O)sc1-c1ccnc(C(C)(C)C(F)(F)F)c1" obs_value=37.3
compound="CC(Cn1ccc(-c2ccc(C#N)c(Cl)c2)n1)NC(=O)c1cc(C(C)O)[nH]n1 (stereo not given) + CC(Nc1ncnc2nc[nH]c12)c1cc2cccc(Cl)c2c(=O)n1-c1ccccc1" obs_value=55.4

The record that follows has no viability, T/C shown yet.
Q: Requested read-out: viability, T/C. Entry: CC1(C)CCC(Nc2ncc(C(F)(F)F)c(-c3c[nH]c4c(P(C)(C)=O)c(C#N)ccc34)n2)CN1 (stereo not given) + Cc1nc(NC(=O)N2CCCC2C(N)=O)sc1-c1ccnc(C(C)(C)C(F)(F)F)c1
Ans: 17.7

Values were extracted from PubChem BioAssay AID1963985.
